The values you see were collected from patent US7186695B2.

Test system: BCE cells
Test: Proliferation and viability of cultured cells, 72 hr, cell count
Type: cell-based, bovine
Settings: Bos taurus, 72 h, BCE, 5% BCS + 10 ng/mL VEGF, 72 hr; read-out: Proliferation IC50
Method: FIG. 18. Inhibition of proliferation and reduction in viability of BCE cells by GSAO. 15,000 (part A and B) or 50,000 (part C and D) BCE cells per well were seeded into gelatinised 24-well culture plates and allowed to attach for 24 hr (part A, B and D) or 72 hr (part C). […] Cells were cultured for 72 hr in parts A, B and C or for discrete times up to 48 hr in part D and then dispersed and counted. […]
measureName: IC50

# IC50 lookup, item NC(CCC(=O)NC(CSCC(=O)Nc1ccc([As]=O)cc1)C(=O)NCC(=O)O)C(=O)O (stereo not shown) [GSAO] ~0.05 µM
